Target Under Test: Interstitial collagenase (Homo sapiens) (UniProt P03956)
Sequence (whole entry): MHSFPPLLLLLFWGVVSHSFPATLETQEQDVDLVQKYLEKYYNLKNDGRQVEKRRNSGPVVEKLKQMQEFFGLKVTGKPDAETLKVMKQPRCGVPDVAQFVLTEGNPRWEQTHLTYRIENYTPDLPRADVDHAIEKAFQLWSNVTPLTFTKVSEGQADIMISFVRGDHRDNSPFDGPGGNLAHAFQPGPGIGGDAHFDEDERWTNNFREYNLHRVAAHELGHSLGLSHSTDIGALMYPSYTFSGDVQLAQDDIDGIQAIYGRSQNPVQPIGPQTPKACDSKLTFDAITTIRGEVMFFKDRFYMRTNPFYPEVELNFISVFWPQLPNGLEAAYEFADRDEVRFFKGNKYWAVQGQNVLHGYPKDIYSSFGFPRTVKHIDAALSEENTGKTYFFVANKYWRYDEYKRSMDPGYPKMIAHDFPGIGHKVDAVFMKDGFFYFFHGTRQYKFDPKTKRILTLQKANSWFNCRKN
Test Details: In vitro inhibition of human fibroblast collagenase at a 10 uM.
Parameter: inhibition (%)
Write the value in % as a bare number.

Record excerpt, results attached:
CC(C)C[C@H](NC(=O)C(CCc1ccccc1)CP(=O)(O)CNC(=O)[C@H](Cc1c[nH]cn1)NC(=O)OCc1ccccc1)C(=O)Nc1ccccc1 (some centres undefined) :: 9
CC(=O)N[C@@H](C)C(=O)N[C@@H](C)C(=O)N[C@@H](C)P(=O)(O)CC(CCc1ccccc1)C(=O)N[C@@H](CC(C)C)C(=O)Nc1ccccc1 (some centres undefined) :: 32
CC(C)C[C@H](NC(=O)C(CCc1ccccc1)CP(=O)(O)CNC(=O)[C@H](Cc1ccccc1)NC(=O)OCc1ccccc1)C(=O)Nc1ccccc1 (some centres undefined) :: 4

Entry CC(C)C[C@H](NC(=O)C(CCc1ccccc1)CP(=O)(O)CNCc1ccccc1)C(=O)Nc1ccccc1 (some centres undefined) — recorded inhibition = 0

Entry CC(C)C[C@H](NC(=O)C(CCc1ccccc1)CP(=O)(O)CNC(=O)CNC(=O)OCc1ccccc1)C(=O)Nc1ccccc1 (some centres undefined) — recorded inhibition = 4

Entry CC(C)C[C@H](NC(=O)C(CCc1ccccc1)CP(=O)(O)[C@H](C)NCc1ccccc1)C(=O)Nc1ccccc1 (some centres undefined) — recorded inhibition = 7

###

Catalogue of compounds with associated inhibition
Target Under Test: Interstitial collagenase (Homo sapiens) (UniProt P03956)
Sequence (whole entry): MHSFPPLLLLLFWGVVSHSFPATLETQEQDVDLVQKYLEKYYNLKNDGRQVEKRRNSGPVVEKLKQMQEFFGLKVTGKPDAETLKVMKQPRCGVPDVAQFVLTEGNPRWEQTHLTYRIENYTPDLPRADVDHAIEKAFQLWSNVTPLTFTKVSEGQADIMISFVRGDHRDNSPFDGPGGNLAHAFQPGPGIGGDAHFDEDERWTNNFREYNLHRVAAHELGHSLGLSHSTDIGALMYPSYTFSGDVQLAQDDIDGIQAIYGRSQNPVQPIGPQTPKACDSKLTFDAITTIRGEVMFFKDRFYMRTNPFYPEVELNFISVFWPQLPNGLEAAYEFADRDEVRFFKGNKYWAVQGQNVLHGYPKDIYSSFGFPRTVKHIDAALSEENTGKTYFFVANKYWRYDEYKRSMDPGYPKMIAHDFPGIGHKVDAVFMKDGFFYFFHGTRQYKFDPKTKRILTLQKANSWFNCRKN
Test Details: In vitro inhibition of human fibroblast collagenase at a 10 uM.
Write the value in % as a bare number.

Record excerpt, results attached:
CC(=O)N1CCCC1C(=O)N[C@@H](C)P(=O)(O)CC(CCc1ccccc1)C(=O)N[C@@H](CC(C)C)C(=O)Nc1ccccc1 (stereo partly drawn) :: 0
CC(C)C[C@H](NC(=O)C(CCc1ccccc1)CP(=O)(O)CNC(=O)[C@H](Cc1ccc(O)cc1)NC(=O)OCc1ccccc1)C(=O)Nc1ccccc1 (stereo partly drawn) :: 0

// below: inhibition requested for another compound
Entry CC(C)C[C@H](NC(=O)C(CCc1ccccc1)CP(=O)(O)CNC(=O)[C@H](C)NC(=O)OCc1ccccc1)C(=O)Nc1ccccc1 (stereo partly drawn) — recorded inhibition = 0
